Origin of measurements: PubChem BioAssay AID1963450

- System: 556581-035-R-J1-PDC complex spheroid growth;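 note: spheroids exposed to agents for 7 days before viability read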
- assay_method_text: Anticancer human tumor 556581-035-R-J1-PDC patient-derived ovarian carcinoma cell line growth inhibition [Asc]
- assay_setup: second compound 1 µM; first compound 0.01 µM; stronger effect = lower value
# viability, T/C per record follows
The reply should be a number in %, with the unit left off.

Known viability, T/C results, listed for orientation:
compound | scale_unit | viability, T/C
COc1c(OCCCN2CCOCC2)ccc2c3n(c(=NC(=O)c4cnc(N)nc4)nc12)CCN3 + Cc1c(S(C)(=O)=O)c(-c2cc(F)cc(N3CCN(c4ccc(NS(=O)(=O)c5ccc(NC(CCN6CCC(C(=O)OCCCP(=O)(O)O)CC6)CSc6ccccc6)c(S(=O)(=O)C(F)(F)F)c5)cc4)CC3)c2)c(-c2ccc(Cl)cc2)n1C(C)C | % | 61.3
COc1c(OCCCN2CCOCC2)ccc2c3n(c(=NC(=O)c4cnc(N)nc4)nc12)CCN3 + CNC(C)C(=O)NC1CN(S(=O)(=O)c2cccc(S(=O)(=O)N3CCC4CCC(C(=O)NC(c5ccccc5)c5ccccc5)N4C(=O)C(NC(=O)C(C)NC)C3)c2)CCC2CCC(C(=O)NC(c3ccccc3)c3ccccc3)N2C1=O | % | 47.1
CCN1CCN(Cc2ccc(Nc3ncc(F)c(-c4cc(F)c5nc(C)n(C(C)C)c5c4)n3)nc2)CC1 + CNC(C)C(=O)NC1CN(S(=O)(=O)c2cccc(S(=O)(=O)N3CCC4CCC(C(=O)NC(c5ccccc5)c5ccccc5)N4C(=O)C(NC(=O)C(C)NC)C3)c2)CCC2CCC(C(=O)NC(c3ccccc3)c3ccccc3)N2C1=O | % | 82.8

Entry O=C(c1ccc(F)c(F)c1Nc1ccc(I)cc1F)N1CC(O)([C@@H]2CCCCN2)C1 + Cc1c(S(C)(=O)=O)c(-c2cc(F)cc(N3CCN(c4ccc(NS(=O)(=O)c5ccc(NC(CCN6CCC(C(=O)OCCCP(=O)(O)O)CC6)CSc6ccccc6)c(S(=O)(=O)C(F)(F)F)c5)cc4)CC3)c2)c(-c2ccc(Cl)cc2)n1C(C)C , viability, T/C reported as 73.7

According to the records, this compound CNC(C)C(=O)NC1CN(S(=O)(=O)c2cccc(S(=O)(=O)N3CCC4CCC(C(=O)NC(c5ccccc5)c5ccccc5)N4C(=O)C(NC(=O)C(C)NC)C3)c2)CCC2CCC(C(=O)NC(c3ccccc3)c3ccccc3)N2C1=O (configuration not stated) + Cc1c(S(C)(=O)=O)c(-c2cc(F)cc(N3CCN(c4ccc(NS(=O)(=O)c5ccc(NC(CCN6CCC(C(=O)OCCCP(=O)(O)O)CC6)CSc6ccccc6)c(S(=O)(=O)C(F)(F)F)c5)cc4)CC3)c2)c(-c2ccc(Cl)cc2)n1C(C)C displays viability, T/C of 53.2

Measured viability, T/C of Cn1ncnc1[C@H]1c2n[nH]c(=O)c3cc(F)cc(c23)N[C@@H]1c1ccc(F)cc1 + CNC(C)C(=O)NC1CN(S(=O)(=O)c2cccc(S(=O)(=O)N3CCC4CCC(C(=O)NC(c5ccccc5)c5ccccc5)N4C(=O)C(NC(=O)C(C)NC)C3)c2)CCC2CCC(C(=O)NC(c3ccccc3)c3ccccc3)N2C1=O : 69.5

Lab note: NC1CCC(NC2CC2c2ccccc2)CC1 (configuration not stated) + CNC(C)C(=O)NC1CN(S(=O)(=O)c2cccc(S(=O)(=O)N3CCC4CCC(C(=O)NC(c5ccccc5)c5ccccc5)N4C(=O)C(NC(=O)C(C)NC)C3)c2)CCC2CCC(C(=O)NC(c3ccccc3)c3ccccc3)N2C1=O gave viability, T/C of 63.4
